B1: library; a variant is named by its letters at N, in order (parent)
chain: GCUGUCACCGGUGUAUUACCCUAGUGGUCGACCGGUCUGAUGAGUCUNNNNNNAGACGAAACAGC

Variants of: B1
Assay: FACS-Seq fitted mean relative fluorescence mCherry/BFP with ligand (log10 relative fluorescence); ligand: hypoxanthine (xanthine aptamer); ligand concentration (+) FACS-Seq: 5 mM; higher = higher reporter protein expression
Details: HEK293T, ligand present: yes
Reported FACS-Seq fitted mean (log10) values for the following variants.

# Residue change, FACS-Seq fitted mean (log10)
data = [
    ("AUAAUU", 0.619),
    ("GUUGCA", 0.698),
    ("AGUCCU", 0.719),
    ("GAGUAC", 0.51),
    ("UGGAGU", 0.602),
    ("GCCCUG", 0.497),
    ("ACACUG", 0.795),
    ("GCACUG", 0.464),
    ("AAGUUU", -0.254),
    ("UUAAAU", 0.322),
    ("UAGAAC", 0.578),
    ("AAGCCA", 0.134),
    ("GACUGG", 0.645),
    ("GUGGUA", 0.585),
    ("AAAUGG", 0.502),
    ("GAAGAG", 0.521),
    ("GUUAUG", 0.509),
    ("CAGUAG", 0.586),
    ("AUUAGA", 0.69),
    ("GAUGAU", 0.495),
    ("AACGUC", 0.255),
    ("GCAUAU", 0.329),
    ("UAUAAU", 0.588),
    ("UGUUUG", 0.0349),
    ("GAUUAA", 0.381),
    ("AUCAUU", 0.691),
    ("AGAUUC", 0.707),
    ("GCGAAU", 0.291),
    ("AUUGUG", 0.469),
    ("GCCGCG", 0.576),
    ("CGGACA", 0.612),
    ("CUUACC", 0.393),
    ("CAGUGA", 0.487),
    ("CAGAAA", 0.32),
    ("UAAAGG", 0.675),
    ("ACCGUA", 0.474),
    ("CCCGCA", -0.0625),
    ("AGGCUG", 0.333),
    ("CAACGA", 0.353),
    ("AUACGG", 0.547),
    ("GGACGA", 0.693),
    ("CCUAAA", 0.615),
    ("UAACUG", 0.31),
    ("CGUGGA", 0.396),
    ("UGGGGA", 0.376),
    ("AACGGA", 0.525),
    ("CUUUUA", 0.318),
    ("GUAAUC", 0.81),
    ("CGUGCA", 0.662),
    ("GACAGC", 0.554),
    ("GCCUGA", 0.602),
    ("UGCAGU", 0.345),
    ("GGCAGA", 0.449),
    ("UCGUAG", 0.642),
    ("GAGUGA", 0.468),
    ("UCCCUG", 0.587),
    ("AAGCGG", 0.442),
    ("GCGCCC", 0.444),
    ("GUAAAA", 0.661),
    ("CCCUUA", 0.279),
    ("UCGGAG", -0.522),
    ("AAAAGG", 0.725),
    ("GAUUAG", 0.539),
    ("GAGUAG", 0.421),
    ("UGCGGA", 0.733),
    ("UAGGGU", 0.632),
    ("GCGAGU", 0.662),
    ("UGCCUA", 0.57),
    ("GAAUUG", 0.434),
    ("GGGUUA", 0.558),
    ("AAUGUG", 0.573),
    ("AUUGAG", 0.476),
    ("GCGUGA", 0.618),
    ("GAUGGU", 0.748),
    ("AAGGUA", 0.162),
    ("GUAUAU", -0.474),
    ("AGUACG", 0.423),
    ("GUCAAA", 0.532),
    ("UCCGGA", 0.384),
    ("AGUGUG", 0.489),
    ("AUAGAC", 0.755),
    ("GACCCC", 0.161),
    ("UUACAU", 0.453),
    ("GAUUUG", 0.521),
    ("AUGAUA", -0.00691),
    ("AUAGAA", 0.622),
    ("UGAACU", 0.000122),
    ("AAAUUA", -0.0839),
    ("UAUCGC", 0.239),
    ("GUCCCG", 0.511),
    ("AAUGAG", 0.472),
]

Reference source for all entries: the supplement of paper PMC6757056
